Biological target: Pin1 WW domain (Pin1–HRP) (Homo sapiens)
Construct: purchased R&D Systems
Assay: ELEBA primary screening assay of the library
Format: binding
Conditions: separate plate of groups A and B (L2 control 85.0443); crude library members; DMSO = 100%; mean of N = 2
MEASURED QUANTITY: % of Pin1-HRP bound to plate-linked ligand (%)
Respond numerically; units are % and should not be typed.

For the compound "N=C(N)NCCCCNC(=O)[C@@H]1CCCN1C(=O)[C@H](COP(=O)(O)O)NC(=O)/C=C/c1c[nH]cn1" , the measured % of Pin1-HRP bound to plate-linked ligand on Pin1 WW domain (Pin1–HRP) (Homo sapiens) was 94.5777

Form: item "CC(=O)N[C@@H](COP(=O)(O)O)C(=O)N1CCC[C@H]1C(=O)Nc1ccc2[nH]ncc2c1" ; test system Pin1 WW domain (Pin1–HRP) (Homo sapiens); % of Pin1-HRP bound to plate-linked ligand: 115.042

Readout % of Pin1-HRP bound to plate-linked ligand for CC1CCCCN1CCCNC(=O)C1CCCN1C(=O)C(COP(=O)(O)O)NC(=O)C=Cc1c[nH]cn1 (mixture of isomers) , test system Pin1 WW domain (Pin1–HRP) (Homo sapiens), was 102.481

Summary: O=C(C=Cc1c[nH]cn1)NC(COP(=O)(O)O)C(=O)N1CCCC1C(=O)N1CCCCC1 (stereo not shown) , Pin1 WW domain (Pin1–HRP) (Homo sapiens), % of Pin1-HRP bound to plate-linked ligand = 97.5722

// returns % of Pin1-HRP bound to plate-linked ligand for "CC(=O)N[C@@H](COP(=O)(O)O)C(=O)N1CCC[C@H]1C(=O)NCCc1c[nH]c2ccccc12" with Pin1 WW domain (Pin1–HRP) (Homo sapiens); value = 120.534

Reading of % of Pin1-HRP bound to plate-linked ligand for "O=C(/C=C/c1c[nH]cn1)N[C@@H](COP(=O)(O)O)C(=O)N1CCC[C@H]1C(=O)NCCCN1CCOCC1" with Pin1 WW domain (Pin1–HRP) (Homo sapiens): 94.8602

Form: item "NCCCCCCNC(=O)[C@@H]1CCCN1C(=O)[C@H](COP(=O)(O)O)NC(=O)/C=C/c1c[nH]cn1" ; test system Pin1 WW domain (Pin1–HRP) (Homo sapiens); % of Pin1-HRP bound to plate-linked ligand: 79.8617

---

Target: Pin1 WW domain (Pin1–HRP) (Homo sapiens, UniProt Q13526)
Construct: purchased R&D Systems
Sequence (Q13526 whole entry, the tested form may be a part): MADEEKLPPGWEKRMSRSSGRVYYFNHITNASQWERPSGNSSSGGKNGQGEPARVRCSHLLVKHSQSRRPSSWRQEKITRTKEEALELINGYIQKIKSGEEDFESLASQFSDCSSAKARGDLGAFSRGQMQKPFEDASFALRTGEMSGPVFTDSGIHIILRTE
Experiment: ELEBA primary screening assay of the library
Assay type: binding
Conditions: separate plate of groups A and B (L2 control 85.0443); crude library members; DMSO = 100%; mean of N = 2
Can you tell me % of Pin1-HRP bound to plate-linked ligand for the items I'm about to list?
Express it in %; write the number only.

Lab note: O=C(/C=C/c1c[nH]cn1)N[C@@H](COP(=O)(O)O)C(=O)N1CCC[C@H]1C(=O)NNC(=O)c1ccco1 [1{18,b}] gave % of Pin1-HRP bound to plate-linked ligand of 87.6813

What the record says about O=C(C=Cc1c[nH]cn1)NC(COP(=O)(O)O)C(=O)N1CCCC1C(=O)NC1CCN(Cc2ccccc2)CC1 (centres unmarked) [1{15,b}] : % of Pin1-HRP bound to plate-linked ligand is 98.3254

Entry under test: CC(=O)N[C@@H](COP(=O)(O)O)C(=O)N1CCC[C@H]1C(=O)NNC(=O)c1ccco1 [1{18,a}] . Its % of Pin1-HRP bound to plate-linked ligand was 102.518

% of Pin1-HRP bound to plate-linked ligand in this record for CC(=O)N[C@@H](COP(=O)(O)O)C(=O)N1CCC[C@H]1C(=O)N1CCN(c2ncccn2)CC1 [1{10,a}] : 102.123

Short answer for CC(=O)NC(COP(=O)(O)O)C(=O)N1CCCC1C(=O)N1CCC(N2CCCCC2)CC1 (centres unmarked) [1{13,a}] : % of Pin1-HRP bound to plate-linked ligand was 109.315

Consider CC(=O)NC(COP(=O)(O)O)C(=O)N1CCCC1C(=O)NCCCN1CCOCC1 (centres unmarked) [1{17,a}] . Its measured % of Pin1-HRP bound to plate-linked ligand is 117.069

Entry under test: CC(=O)NC(COP(=O)(O)O)C(=O)N1CCCC1C(=O)NCCc1ccc(O)cc1 (centres unmarked) [1{4,a}] . Its % of Pin1-HRP bound to plate-linked ligand was 120.879

Lab book: % of Pin1-HRP bound to plate-linked ligand of CC(=O)N[C@@H](COP(=O)(O)O)C(=O)N1CCC[C@H]1C(=O)NC1CCN(Cc2ccccc2)CC1 [1{15,a}] noted as 110.698
